Measured Mouse microsome (% metabolized in 30 min), listed per entry for reference.
# method: Mouse microsomal stability
# Format: in vitro ADME
# experimentalSetup: mouse, microsomes, 0.5 h, 2 μM
API: value field is a number in %; no unit string.

**Query** Field request: Mouse microsome (% metabolized in 30 min) | item: CN(Cc1ccc(C(F)(F)F)cc1)Cc1nnc(-c2cccs2)o1
**Result** 98

**Query** What value of measured Mouse microsome (% metabolized in 30 min) is listed for Fc1cccc(Cl)c1COCc1nnc(-c2ccco2)o1 ?
**Result** 100

**Query** Could you tell me which Mouse microsome (% metabolized in 30 min) is on file for c1coc(-c2nnc(Cc3cccc4ccccc34)o2)c1 ?
**Result** 100

**Query** GET /values?readout=Mouse microsome (% metabolized in 30 min)&item= c1ccc(-c2nnc(CN3CCOc4ccccc43)o2)cc1
**Result** 99

**Query** Give the measured Mouse microsome (% metabolized in 30 min) of CC1CCc2ccccc2N1Cc1nc(-c2ccsc2)no1 (stereo not drawn) .
**Result** 65

###

# method: physchem
# experimentalSetup: pH 6
measure: solubility (µg/mL)
I only need the number, in µg/mL, no unit after it.

**Query** Dear colleague, I am looking for the recorded solubility of the following compound: CN(Cc1nnc(-c2ccco2)o1)Cc1c(F)cccc1Cl
**Result** 49

###

# method: physchem
# experimentalSetup: pH 7.4
Form field: solubility (one value per entry).
Mention the unit after the number when you answer.

| molecule | solubility |
| --- | --- |
| CN(Cc1ccccc1)Cc1nnc(-c2ccco2)o1 [Compound 14] | 400 µg/mL |
| c1csc(-c2nnc(CN3CCOc4ccccc43)o2)c1 [Compound 32] | 33 µg/mL |
| CN(Cc1nnc(-c2ccco2)o1)Cc1ccccc1Cl [Compound 15] | 270 µg/mL |
| c1csc(-c2nnc(CN3CCCc4ccccc43)o2)c1 [Compound 24] | 5 µg/mL |

Here is the next item to consider.
**Query** What solubility value was documented for this molecule, c1csc(-c2nnc(CN3CCc4ccccc43)o2)c1 [Compound 36] ?
**Result** 38 µg/mL

###

# method: in vitro
# Format: in vitro ADME
# experimentalSetup: mouse, plasma
measure: fraction unbound

**Query** So what does the record say about fraction unbound for CC1CCc2ccccc2N1Cc1nc(-c2ccsc2)no1 (stereo not shown) ?
**Result** < 0.015

###

# method: physchem
# experimentalSetup: pH 7.4
A collection of compounds and their measured log10(solubility)
Would you kindly interpret these values as log10 of solubility expressed in µg/mL?

Please review the entries below; each comes with its answer.
| compound | log10(solubility) |
| --- | --- |
| CN(Cc1ccc(C(F)(F)F)cc1)Cc1nnc(-c2ccccc2)o1 [Compound 18] | 0.95 |
| c1ccc(-c2nnc(CN3CCOc4ccccc43)o2)cc1 [Compound 33] | 1.45 |
| Fc1cccc(Cl)c1COCc1nnc(-c2ccco2)o1 [Compound 21] | 2.18 |

**Query** # input compound: c1csc(-c2nnc(CN3CCc4ccccc4C3)o2)c1 [Compound 28] ; wanted: its log10(solubility)
**Result** 1.73

**Query** I would be grateful if you could share the reported log10(solubility) for c1ccc(-c2nnc(CN3CCc4ccccc4C3)o2)cc1 [Compound 29] .
**Result** 1.71

**Query** For the compound shown here, CN(Cc1ccccc1)Cc1nnc(-c2cccs2)o1 [Compound 13] , give the reported log10(solubility).
**Result** 2.62

###

# method: Mouse microsomal stability
# Format: in vitro ADME
# experimentalSetup: mouse, microsomes
Quick list: CLint scaled at 2 μM per entry.
Record the value in mL/min/kg, omitting the unit from your answer.

Recorded results for 3 molecules are shown here.
| molecule | resultNumber |
| --- | --- |
| c1csc(-c2nnc(Cc3cccc4ccccc34)o2)c1 | 3310 |
| c1coc(-c2nnc(SCc3cccc4ccccc34)o2)c1 | 1680 |
| CC1CCc2ccccc2N1Cc1nc(-c2ccsc2)no1 (stereo not shown) | 1910 |

With those in mind, consider the next molecule.
**Query** Could you share which CLint scaled at 2 μM value was measured for CN(Cc1nnc(-c2ccco2)o1)Cc1c(F)cccc1Cl ?
**Result** 1350

###

Form field: AUC(0-t) at 24 h (one value per entry).
# method: Mouse pharmacokinetic studies (intravenous and oral)
# Assay type: in vivo
# experimentalSetup: in vivo, po, 10 mg/kg, AUC0–24
Please give a number only; it is taken to be in ng·h/mL.

| molecule | AUC(0-t) at 24 h / ng·h/mL |
| --- | --- |
| c1csc(-c2nnc(Cc3cccc4ccccc34)o2)c1 | 31 |

Here's the next entry for you.
**Query** Recorded AUC(0-t) at 24 h for CC1CCc2ccccc2N1Cc1nc(-c2ccsc2)no1 (centres unmarked) , please?
**Result** 10

###

# method: Mouse microsomal stability
# Format: in vitro ADME
# experimentalSetup: mouse, microsomes, 0.5 h, 2 μM
# Protocol: 4. Method for microsomal stability: To determine microsomal turnover, test compounds were incubated (2 μM) with liver microsomes in the presence of NADPH, and loss of parent molecule was measured by LC-MS after 30 min.
Entries and their Mouse microsome (% metabolized in 30 min) values follow.
Quick note: give the figure in %, leave out the unit.

| compound | quantityUnit | resultNumber |
| --- | --- | --- |
| CN(Cc1nnc(-c2ccco2)o1)CC1CCCCC1 [Compound 19] | % | 100 |
| c1ccc(-c2nnc(CN3CCc4ccccc43)o2)cc1 [Compound 37] | % | 99 |
| c1csc(-c2nnc(CN3Cc4ccccc4C3)o2)c1 [Compound 38] | % | 99 |
| CN(Cc1nnc(-c2ccco2)o1)C(=O)c1c(F)cccc1Cl [Compound 22] | % | 95 |

**Query** Item under review: c1csc(-c2nnc(CN3CCCc4ccccc43)o2)c1 [Compound 24] . Reported Mouse microsome (% metabolized in 30 min)?
**Result** 97

**Query** Requested field: Mouse microsome (% metabolized in 30 min). Item: c1csc(-c2nnc(CN3CCc4ccccc43)o2)c1 [Compound 36]
**Result** 99

**Query** Would you kindly share the measured Mouse microsome (% metabolized in 30 min) for c1ccc(C2CCCN2Cc2nnc(-c3cccs3)o2)cc1 (stereo not shown) [Compound 40] ?
**Result** 100

**Query** So what's the measured Mouse microsome (% metabolized in 30 min) for this one? FC(F)(F)c1ccc(-c2nnc(CN3CCOc4ccccc43)o2)cc1 [Compound 35]
**Result** 95

**Query** // lookup Mouse microsome (% metabolized in 30 min) for c1csc(-c2nnc(CN3CCOc4ccccc43)o2)c1 [Compound 32]
**Result** 99

**Query** Quick one: Mouse microsome (% metabolized in 30 min) of c1csc(-c2nnc(CN3CCc4ccccc4C3)o2)c1 [Compound 28] ?
**Result** 99

###

# method: physchem
# experimentalSetup: pH 7.4
solubility values, listed per item

**Query** Need solubility of c1ccc(-c2nnc(CN3CCCC3c3ccccc3)o2)cc1 (stereo not drawn) [Compound 41] , thanks.
**Result** 34 µg/mL

**Query** Fill in the blank: the reported solubility of CN(Cc1nnc(-c2cccs2)o1)Cc1c(F)cccc1Cl [Compound 11] is ____.
**Result** 120 µg/mL

**Query** Item c1ccc(-c2nnc(CN3CCc4ccccc43)o2)cc1 [Compound 37] has what recorded solubility?
**Result** 21 µg/mL

###

# method: Mouse microsomal stability
# Format: in vitro ADME
# experimentalSetup: mouse, microsomes, 0.5 h, 2 μM
Reported Mouse microsome (% metabolized in 30 min) values for the following molecules.
Use % as the unit, but write only the number.

Below, 6 molecules whose answers are already recorded.
| molecule | quantityUnit | resultNumber |
| --- | --- | --- |
| Fc1ccc(-c2nnc(CN3CCCc4ccccc43)o2)cc1 [Compound 26] | % | 100 |
| CN(Cc1ccccc1)Cc1nnc(-c2cccs2)o1 [Compound 13] | % | 98 |
| Fc1cccc(Cl)c1CNCc1nnc(-c2ccco2)o1 [Compound 20] | % | 99 |
| CN(Cc1nnc(-c2cccs2)o1)Cc1c(F)cccc1Cl [Compound 11] | % | 100 |
| c1csc(-c2nnc(Cc3ccc4ccccc4c3)o2)c1 [Compound 7] | % | 100 |
| c1ccc(-c2nnc(CN3CCc4ccccc4C3)o2)cc1 [Compound 29] | % | 99 |

**Query** Recorded Mouse microsome (% metabolized in 30 min) for CN(Cc1ccc(C(F)(F)F)cc1)Cc1nnc(-c2ccccc2)o1 [Compound 18] , please?
**Result** 99

**Query** What Mouse microsome (% metabolized in 30 min) value was documented for this molecule, Fc1ccc(-c2nnc(CN3CCc4ccccc4C3)o2)cc1 [Compound 30] ?
**Result** 80

###

# method: physchem
# experimentalSetup: pH 7.4
measure: log10 solubility (log10 of the value in µg/mL)
Log scale reminder: solubility in µg/mL, then log10 taken.

Some compounds with known log10 solubility results, for comparison:
| compound | resultNumber |
| --- | --- |
| CN(Cc1nnc(-c2ccco2)s1)Cc1c(F)cccc1Cl | 1.30 |
| Fc1cccc(Cl)c1CNCc1nnc(-c2ccco2)o1 | 2.26 |
| CC1CCc2ccccc2N1Cc1nc(-c2ccsc2)no1 (stereo not drawn) | 0.70 |
| Fc1ccc(-c2nnc(CN3CCc4ccccc4C3)o2)cc1 | 1.60 |
| c1csc(-c2nnc(CN3Cc4ccccc4C3)o2)c1 | 1.08 |

**Query** Reported log10 solubility for CN(Cc1nnc(-c2ccco2)o1)C(=O)c1c(F)cccc1Cl : what is it?
**Result** 2.81

**Query** Find the recorded log10 solubility belonging to CN(CCc1c(F)cccc1Cl)c1nnc(-c2ccco2)o1 and report it.
**Result** 0.85

**Query** For the compound shown here, CN(Cc1nnc(-c2ccco2)o1)CC1CCCCC1 , give the reported log10 solubility.
**Result** 1.61

The measurements presented in this section are drawn from paper PMC5946847.
